molecular target: HLA-A2 molecules (HLA-A*0201) (Homo sapiens, UniProt P04439, D140Y/D185E/D98H/E176V/E277Q/G131W/G231S/I119V/I121R/I166T/I218V/L300P/L318F/N151K/N90K/P208A/P217A/Q86G/Q94H/R138H/R169H/T345S); assay: HLA class I stabilization assay with RMA-S/A2 cells; format: binding; settings: peptide 10 µg/ml + β2-microglobulin 2 µg/ml, 18 h 26°C then 3 h 37°C, anti-HLA-A2 mAb BB7.2, flow cytometry, representative of three experiments
Below, each entry is listed with its recorded HLA-binding capability (MFI increase).
propertyName: HLA-binding capability (MFI increase) (%)

entrySequence: LIMQLMPFGCL [Peptide T790M-7]
propertyName: HLA-binding capability (MFI increase)
endpointUnit: %
measured: 19.1

entrySequence: TQLMPFGCLL [WT-5]
propertyName: HLA-binding capability (MFI increase)
endpointUnit: %
measured: 158.2

entrySequence: LTSTVQLIMQL [Peptide T790M-6]
propertyName: HLA-binding capability (MFI increase)
endpointUnit: %
measured: 0
